These data points were gathered from ChEMBL document CHEMBL1146474.

protocolText: Induction of tubulin assembly at 0.2 uM relative to taxol

| compound | Activity [%] |
| --- | --- |
| CC(=O)O[C@H]1C(=O)[C@]2(C)[C@@H](OC(=O)CCC(=O)O[C@@H]3C[C@]4(C)[C@@H](O)CC[C@H]4[C@@H]4CCc5cc(O)ccc5[C@H]43)C[C@H]3OC[C@@]3(OC(C)=O)[C@H]2[C@H](OC(=O)c2ccccc2)[C@]2(O)C[C@H](OC(=O)[C@H](O)[C@@H](NC(=O)c3ccccc3)c3ccccc3)C(C)=C1C2(C)C | 100 |
| CC(=O)O[C@@]12CO[C@@H]1C[C@H](O)[C@@]1(C)C(=O)[C@H](OC(=O)CCC(=O)O[C@@H]3C[C@]4(C)[C@@H](O)CC[C@H]4[C@@H]4CCc5cc(O)ccc5[C@H]43)C3=C(C)[C@@H](OC(=O)[C@H](O)[C@@H](NC(=O)c4ccccc4)c4ccccc4)C[C@@](O)([C@@H](OC(=O)c4ccccc4)[C@H]21)C3(C)C | 100 |
| CC(=O)O[C@H]1C(=O)[C@@]2(C)[C@H]([C@H](OC(=O)c3ccccc3)[C@]3(O)C[C@H](OC(=O)[C@H](OC(=O)CCC(=O)O[C@@H]4C[C@]5(C)[C@@H](O)CC[C@H]5[C@@H]5CCc6cc(O)ccc6[C@H]54)[C@@H](NC(=O)c4ccccc4)c4ccccc4)C(C)=C1C3(C)C)[C@]1(OC(C)=O)CO[C@@H]1C[C@@H]2O | 60 |
| CC(=O)O[C@H]1C(=O)[C@]2(C)[C@@H](OC(=O)/C=C/C[C@@H]3C[C@H]4[C@@H]5CCc6cc(O)ccc6[C@H]5CC[C@]4(C)[C@H]3O)C[C@H]3OC[C@@]3(OC(C)=O)[C@H]2[C@H](OC(=O)c2ccccc2)[C@]2(O)C[C@H](OC(=O)[C@H](O)[C@@H](NC(=O)c3ccccc3)c3ccccc3)C(C)=C1C2(C)C | 100 |
| CC(=O)O[C@H]1C(=O)[C@@]2(C)[C@H]([C@H](OC(=O)c3ccccc3)[C@]3(O)C[C@H](OC(=O)[C@H](OC(=O)/C=C/C[C@@H]4C[C@H]5[C@@H]6CCc7cc(O)ccc7[C@H]6CC[C@]5(C)[C@H]4O)[C@@H](NC(=O)c4ccccc4)c4ccccc4)C(C)=C1C3(C)C)[C@]1(OC(C)=O)CO[C@@H]1C[C@@H]2O | 45 |
